system: HCT-116 colon; test: NCI-60 one-dose screen, 48 h (100 = growth as untreated, 0 = no growth, -100 = all killed); settings: 10 µM unless noted
Compounds without any hit were thinned out: in the full panel of roughly 83,000, 20% have a hit.
The label depends only on growth: TRUE if it is at least 60%, FALSE if it is smaller.

Take a look at these entries with their results.
compound=COP(=S)(OC)Oc1ccc(SC)c(C)c1 qualitative_label=TRUE
compound=COc1cc(/C=C\c2cc(OC)c(OC)c(OC)c2)cc(N/C=C\C(=O)c2ccc(OC(F)(F)F)cc2)c1OC qualitative_label=FALSE
compound=CCC[CH2][Sn]1([CH2]CCC)[O]C(=O)c2cccc([N+](=O)[O-])c2C(=O)[O]1 qualitative_label=FALSE
compound=Clc1ccc(SSC(Cl)(Cl)Cl)cc1 qualitative_label=TRUE
compound="O=[As]c1ccc(C(=O)c2ccc(Oc3ccccc3)cc2)cc1 (stereo unspecified)" qualitative_label=FALSE
compound=O=S(=O)(c1ccc(Cl)cc1)C(Cl)(Cl)Cl qualitative_label=FALSE

*Q* Given the entry CCN(CC)c1ccc(C=C2C(=O)NC(=S)NC2=O)cc1 , answer whether its growth meets or surpasses 60%.
*A* TRUE

###

System: HL-60(TB) leukemia
Experiment: NCI-60 one-dose screen, 48 h (100 = growth as untreated, 0 = no growth, -100 = all killed)
Details: 10 µM unless noted
Experimental: Growth inhibition of the HL-60(TB) human tumor cell line is measured as a screen for anti-cancer activity. Cells are grown in 96 well plates and exposed to the test compound for 48 hours. Compounds are tested at a single concentration, which is 10^-5 M for most compounds. The reported endpoint is percent growth (GI% or GIPRCNT), where numbers from 0 - 100% represent growth inhibition, and numbers from -100% - 0 represent cell death. For example, a value of 40 represents 60% growth inhibition. […]
Compounds without any hit were thinned out: in the full panel of roughly 83,000, 20% have a hit.
result type: growth (%)
API: value field is a number in %; no unit string.

Reference set, count: 4
molecule=COc1cc2cc(Oc3ccc(NC(=O)c4ccc(Cl)c(C(F)(F)F)c4)cc3)c(C)nc2cc1OC result_type=growth units_label=% measured_number=17.4
molecule=Cc1nc(-c2cn3c(n2)-c2ccc(-c4cnn(C(C)(C)C(N)=O)c4)cc2OCC3)n(C(C)C)n1 result_type=growth units_label=% measured_number=35.7
molecule=S=c1[nH]ccn1-c1c(Cl)cccc1Cl result_type=growth units_label=% measured_number=93.5
molecule=NC(=O)c1c(OCc2c(F)cc(Br)cc2F)nsc1NC(=O)NCCCCN1CCCC1 result_type=growth units_label=% measured_number=-64.6

*Q* What measured growth goes with Cc1nc2c(-c3cnc(N)nc3)nc(N3CCOCC3)nc2n1C(C)C ?
*A* 10.8

*Q* What measured growth goes with c1ccc(-c2cn3nc(-c4c[nH]c5ccccc45)sc3n2)cc1 ?
*A* 95.1

*Q* What measured growth goes with CCn1nc(C#Cc2c(C)ccc3c(Nc4ccc(Cl)cc4)nccc23)c2c(N)ncnc21 ?
*A* -16

*Q* What measured growth goes with CNC(=O)c1cc(Oc2ccc3c(c2)sc2nc(-c4ccc(NC(C)=O)cc4)cn23)ccn1 ?
*A* 44.2

*Q* What measured growth goes with Cc1ccccc1-c1nc(C(Cl)Cl)nc2cc(-c3ccccc3)nn12 ?
*A* 92

*Q* What measured growth goes with COc1cccc(C(c2cc3c(cc2O)OCO3)N2CCOCC2)c1OC (stereo unspecified) ?
*A* 97.1

Provenance of the data: PubChem BioAssay (NCI)
